Source: patent US20210130346A1

Quick reference: Ki of the listed items.
# measurement.target: BRD4 (BDI_K57-E168) (Homo sapiens, UniProt O60885)
# assay.info: TR-FRET bromodomain binding assay, BRD4 first bromodomain (BDI)
# measurement.conditions: mean Ki; 12 nM His tagged BRD4 (BDI_K57-E168), 100 nM Alexa647 probe; Ki calculated from IC50, probe Kd and probe concentration
# unit: nM | format: bare number

- molecule: "CN1C(=O)[C@@]2(C[C@H]2c2cn(C)c(=O)c3[nH]c(-c4nccn4C)cc23)c2ccccc21 (racemic)"
  Ki (nM): 1490
- molecule: "CN1C(=O)[C@@]2(C[C@H]2c2cn(C)c(=O)c3[nH]c(-c4cnn(C)c4)cc23)c2ccccc21 [Example 35]"
  Ki (nM): 1300
- molecule: "CN1C(=O)[C@@]2(C[C@H]2c2cn(C)c(=O)c3[nH]ccc23)c2ccccc21 (racemic)"
  Ki (nM): 3440

For the next question, use this molecule.
Look up Ki of CN1C(=O)[C@@]2(C[C@H]2c2cn(C)c(=O)c3[nH]c(C(=O)NC4CC4)cc23)c2ccc(OC(F)(F)F)cc21 (racemic) and report it.
3630
